All values here come from patent US20210054097A1.

# SYSTEM_NAME: T1, FX activation peptide 12-mer VAQATSSSGEAP (human)
# T1 peptide: VAQATSSSGEAP-biotin
# ASSAY_PROTOCOL: peptide ELISA
Ends that are not written are not given here.
METRIC: ELISA signal relative to background
Numbers only.

BINDER | ELISA signal relative to background
Nb 701D07 (VHH, monovalent Nanobody; not shown: C-terminal FLAG3 and HIS6 tag) VHH: EVQLVESGGGVVQPGGSLRLSCAASGGTLSRYAMGWFRQAPGKEREFVAAITRRGSRTYYADSVKGRFTISRDNSKNTVYLQMNSLRPEDTALYYCAADLAPGDYALDYWGQGTLVTVSS | 0.84

// next entry
Query: What value of ELISA signal relative to background has been recorded for this entry: Nb 701B09 (VHH, monovalent Nanobody; also called Nb 701609; not shown: C-terminal FLAG3 and HIS6 tag) VHH: EVQLVESGGGVVQPGGSLRLSCAASGRTFSTYAMGWFRQAPGKEREFVAAISWSGSRTYYADSVKGRFTISRDNSKNTVYLQMNSLRPEDTALYYCAADATPANGELDYWGQGTLVTVSS
Response: 0.73
